Value source: patent US5691373A

Item-by-item account of pIC50
target_entity: human ETB receptor (Homo sapiens)
Construct: expressed in transfected cells; host or cells: CHO-K1 cells, pRc-CMW (so in the source) expression vector, electroporation; membranes used
Sequence (P24530 27-442): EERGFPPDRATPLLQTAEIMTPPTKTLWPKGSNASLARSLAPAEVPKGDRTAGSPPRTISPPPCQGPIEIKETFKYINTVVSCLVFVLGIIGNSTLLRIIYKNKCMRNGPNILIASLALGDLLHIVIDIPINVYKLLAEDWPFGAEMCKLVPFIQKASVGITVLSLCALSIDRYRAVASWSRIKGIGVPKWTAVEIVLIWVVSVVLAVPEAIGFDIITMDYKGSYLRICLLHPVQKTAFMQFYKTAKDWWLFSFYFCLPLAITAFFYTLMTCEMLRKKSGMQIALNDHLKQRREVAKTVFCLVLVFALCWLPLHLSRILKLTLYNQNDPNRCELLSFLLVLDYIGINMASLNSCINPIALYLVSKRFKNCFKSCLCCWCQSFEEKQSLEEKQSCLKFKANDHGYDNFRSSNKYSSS
run_description: ERBA-B: [125I]-ET-1 binding, recombinant human ETB receptor expressed in CHO-K1 cells
condition_info: human cloned ETB receptor, read-out: ERBA-B IC50, human cloned receptor data
Keep in mind that pIC50 stands for -log10 of concentration in molar terms.

compound	target_entity	metric	val
COc1ccc(C2(O)OC(=O)C(c3cc(OC)c4c(c3)OCO4)=C2Cc2ccccc2)cc1C (stereo not drawn)	human ETB receptor (Homo sapiens)	pIC50	5.87

Q: Endpoint output: pIC50 of COc1ccc(C2(O)OC(=O)C(c3ccc4c(c3)OCO4)=C2Cc2cc(OC)cc(OC)c2)cc1 (stereo not drawn) . Value?
Ans: 6.12
